Just for reference, patent US20050164234A1 is where these values come from.

- Test system: human RNase H2
- protocolDescription: Antisense inhibition of human RNase H2 expression, Northern blot
- Format: cell-based
- Design: concentration or dose not given beside the values
- conditions: RNase H2 expression, Northern blot
Strand notation (5' to 3'): a small letter for the sugar, then the base; units joined by * are phosphorothioate-linked, units joined directly phosphodiester-linked; [ ] holds rarer units or linkages, { } end groups; capitals alone tell only the bases. e = 2'-O-(2-methoxyethyl) (MOE); [5mC] = 5-methylcytosine; d = 2'-deoxy (DNA)
readoutLabel: % inhibition (%)
Give the value, in units of %, as a plain number.

Incoming: Fill in the blank: the reported % inhibition of AGCTGAACCGGACAAACTGG (antisense eA*eG*e[5mC]*eT*eG*eA*dA*d[5mC]*d[5mC]*dG*dG*dA*d[5mC]*dA*eA*eA*e[5mC]*eT*eG*eG) [ISIS 21957, 2′-O-methoxyethyl gapmer, 8-nucleotide deoxy gap, phosphorothioate backbone, targeted to human RNase H2] is ____.
Outgoing: 68

Incoming: Which % inhibition is listed for CCTCTTTCTCCAGGATGGTC (antisense e[5mC]*e[5mC]*eT*e[5mC]*eT*eT*dT*d[5mC]*dT*d[5mC]*d[5mC]*dA*dG*dG*eA*eT*eG*eG*eT*e[5mC]) [ISIS 21958, 2′-O-methoxyethyl gapmer, 8-nucleotide deoxy gap, phosphorothioate backbone, targeted to human RNase H2] ?
Outgoing: 38

Incoming: If you can, please state the reported % inhibition value of CCCGCTCGCTCTCCAATAGG (all C 5-methyl, all phosphorothioate, sugars by position not given here; further chemistry not fully specified) [ISIS 21949, 2′-O-methoxyethyl gapmer, 8-nucleotide deoxy gap, phosphorothioate backbone, targeted to human RNase H2] .
Outgoing: 82

More entries:
Incoming: If you can, please state the reported % inhibition value of CACAGGCGAACTCAGGCGAC (all C 5-methyl, all phosphorothioate, sugars by position not given here; further chemistry not fully specified) [ISIS 21947, 2′-O-methoxyethyl gapmer, 8-nucleotide deoxy gap, phosphorothioate backbone, targeted to human RNase H2] .
Outgoing: 63

Incoming: Could you share which % inhibition value was measured for CGCCTCAGCCGCCACCACCA (all C 5-methyl, all phosphorothioate, sugars by position not given here; further chemistry not fully specified) [ISIS 21946, 2′-O-methoxyethyl gapmer, 8-nucleotide deoxy gap, phosphorothioate backbone, targeted to human RNase H2] ?
Outgoing: 50

Incoming: Which value of % inhibition has been reported for CCACCTTGGCACAGATGCTG (all C 5-methyl, all phosphorothioate, sugars by position not given here; further chemistry not fully specified) [ISIS 21954, 2′-O-methoxyethyl gapmer, 8-nucleotide deoxy gap, phosphorothioate backbone, targeted to human RNase H2] in the records?
Outgoing: 77
